# TARGET: Fes (UniProt P07332)
# Sequence (P07332 whole entry, looked up): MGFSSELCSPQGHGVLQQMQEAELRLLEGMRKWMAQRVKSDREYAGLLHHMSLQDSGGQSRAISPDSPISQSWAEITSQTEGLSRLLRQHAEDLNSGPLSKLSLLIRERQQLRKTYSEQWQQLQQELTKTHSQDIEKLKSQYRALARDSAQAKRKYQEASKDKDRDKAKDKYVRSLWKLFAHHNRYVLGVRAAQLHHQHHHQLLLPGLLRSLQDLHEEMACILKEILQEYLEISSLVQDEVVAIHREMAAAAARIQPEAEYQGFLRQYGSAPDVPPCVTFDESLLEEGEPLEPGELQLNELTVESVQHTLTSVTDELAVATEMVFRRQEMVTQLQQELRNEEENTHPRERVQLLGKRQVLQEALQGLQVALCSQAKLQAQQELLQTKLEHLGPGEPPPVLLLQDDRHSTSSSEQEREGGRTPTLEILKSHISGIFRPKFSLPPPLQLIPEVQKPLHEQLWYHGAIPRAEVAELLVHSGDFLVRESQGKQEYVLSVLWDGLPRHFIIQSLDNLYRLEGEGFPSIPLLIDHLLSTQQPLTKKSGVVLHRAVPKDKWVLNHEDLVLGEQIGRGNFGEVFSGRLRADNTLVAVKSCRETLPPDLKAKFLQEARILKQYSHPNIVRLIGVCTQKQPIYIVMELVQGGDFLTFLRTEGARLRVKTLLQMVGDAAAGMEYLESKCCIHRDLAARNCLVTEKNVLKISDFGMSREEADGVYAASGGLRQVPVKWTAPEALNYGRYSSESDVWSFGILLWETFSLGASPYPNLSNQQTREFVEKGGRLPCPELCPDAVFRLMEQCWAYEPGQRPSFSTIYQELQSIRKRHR
# ASSAY REMARKS: phosphorylation enrichment, bacterial display (enrichment ratio); higher = better substrate or ligand; peptides without Tyr show the background;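 further: 11-residue human phosphosite peptides and single-mutation variants displayed on the E. coli surface, counted by deep sequencing, each peptide's frequency after selection divided by its frequency in the unselected input library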;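 further: frequency after pTyr selection over input frequency; kinase dosed for 20-30% of maximal phosphorylation in three min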
Listed here: items and their measured phosphorylation enrichment.
Please give the numeric answer without any surrounding text.

# count of solved cases: 3
LEKISYVYMKR [SSX7_Y48] :: 1.75
SRGSSYSSIPK [FLNC_Y2625] :: 0.518
DDLTDYLMKIL [ACTA1_Y190_R185D] :: 1.1

response.value for DNACQYMLTDR [MYH7_Y164_Y162C] (field: phosphorylation enrichment) = 1

Sure, the documented phosphorylation enrichment for IPGMEYLVSII [TNC_Y1775_V1773M] is 1.41

Input SLLTDYSPQLQ [OTC_Y345] . Output phosphorylation enrichment: 0.796

Reported phosphorylation enrichment ( SVQVEYMKTIL [GLYATL2_Y127_D126E] ) = 0.893
